Recorded values, source patent US20240360151A1.

- system: NLRP3 inflammasome (Homo sapiens)
- Construct: endogenous in cells
- run-description: IL-1β secretion assay (NLRP3 IC50) in LPS-primed, nigericin-activated THP-1 cells, HTRF
- run-conditions: monocytic THP-1 cells; LPS 10 ng/mL 3 h priming, then compound + nigericin 10 μM 2 h; relative IC50, 10 concentrations, geometric mean
pIC50: −log10 of the molar value.
metric: pIC50

P = Cc1cc(C)c(-c2ccc(N3CCO[C@H]4CCNC[C@H]43)nn2)c(O)c1 [Example 314]
Q = CC(=O)NC[C@@H]1CN(c2ccc(-c3c(C)cc(C(F)(F)F)cc3O)nn2)CCO1
R = Cc1cc(Cl)cc(O)c1-c1ccc(N2CCO[C@H]3CCN(C)C[C@H]32)nn1 (single isomer, unassigned) [Example 307]
S = Cc1cc(C)c(-c2ccc(N3CC4(CCC(O)C4)C3)nn2)c(O)c1 (centres unmarked) [Example 84]
List the 4 compounds shown above, ordered by increasing pIC50. Lab note: final answer is the ordered label list.
S, R, Q, P

a = NC[C@H]1CCCN(c2ccc(-c3c(O)cc(Cl)cc3Cl)nn2)C1
b = Cc1cc(C)c(-c2ccc(N3CC[C@@]4(COCCN4C)C3)nn2)c(O)c1
c = Cc1cc(C(F)(F)F)cc(O)c1-c1ccc(N2CCO[C@H](CO)C2)nn1
Arrange these compounds by their pIC50, starting with the largest number. Lab note: final answer is the ordered label list.
c, a, b

###

- system: NLRP3 inflammasome (Homo sapiens, UniProt Q96P20)
- Construct: endogenous in cells
- Sequence (Q96P20 whole entry): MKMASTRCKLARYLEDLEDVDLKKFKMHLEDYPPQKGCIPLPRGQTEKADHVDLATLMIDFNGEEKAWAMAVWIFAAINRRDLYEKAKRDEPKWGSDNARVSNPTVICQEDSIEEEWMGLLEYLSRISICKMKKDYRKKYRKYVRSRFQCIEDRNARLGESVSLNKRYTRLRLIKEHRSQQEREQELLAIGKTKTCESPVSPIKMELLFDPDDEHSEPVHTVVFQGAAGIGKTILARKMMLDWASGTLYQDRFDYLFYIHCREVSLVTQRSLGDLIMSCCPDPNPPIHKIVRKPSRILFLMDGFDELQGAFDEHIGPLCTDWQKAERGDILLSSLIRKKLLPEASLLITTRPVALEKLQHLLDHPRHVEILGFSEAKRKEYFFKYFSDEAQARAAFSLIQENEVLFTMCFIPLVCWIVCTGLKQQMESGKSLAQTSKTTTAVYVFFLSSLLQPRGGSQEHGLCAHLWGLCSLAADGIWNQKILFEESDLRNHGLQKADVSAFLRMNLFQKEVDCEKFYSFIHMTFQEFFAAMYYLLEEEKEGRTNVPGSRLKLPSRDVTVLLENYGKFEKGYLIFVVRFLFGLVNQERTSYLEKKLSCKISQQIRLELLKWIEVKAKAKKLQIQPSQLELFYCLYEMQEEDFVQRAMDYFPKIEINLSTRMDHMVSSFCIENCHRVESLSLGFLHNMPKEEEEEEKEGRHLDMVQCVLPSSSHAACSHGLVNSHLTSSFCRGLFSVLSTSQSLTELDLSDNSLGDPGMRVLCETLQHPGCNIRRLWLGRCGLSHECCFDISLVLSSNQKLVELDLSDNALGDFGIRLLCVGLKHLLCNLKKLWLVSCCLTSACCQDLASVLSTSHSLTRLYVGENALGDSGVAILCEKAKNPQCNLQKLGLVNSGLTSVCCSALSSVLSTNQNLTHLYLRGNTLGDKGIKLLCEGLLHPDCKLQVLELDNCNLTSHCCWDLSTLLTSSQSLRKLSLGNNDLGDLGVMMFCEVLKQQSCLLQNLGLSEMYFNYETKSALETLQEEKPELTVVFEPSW
- run-description: IL-1β secretion assay (NLRP3 IC50) in LPS-primed, nigericin-activated THP-1 cells, HTRF
- run-conditions: monocytic THP-1 cells; LPS 10 ng/mL 3 h priming, then compound + nigericin 10 μM 2 h; relative IC50, 10 concentrations, geometric mean
- Method: Monocytic THP-1 cells were maintained in RPMI 1640 media (Gibco 21875)+10% FBS, (Gibco 10500)+1% penicillin/streptomycin (Gibco 15140-122). […] 16 μL supernatant was removed, and IL-1β levels were monitored using an HTRF assay (Human IL1b Kits HTRF Cisbio ref: 62HILBPEH) according to manufacturers' instructions. […] Relative IC50 (IC50 rel) were obtained from a dose response curve with 10 concentrations. Final IC50 rels are expressed as the geometric mean. […]
metric: IC50 (nM)

Worked examples follow.
molecule	IC50 (nM)
Cc1cc(C)c(-c2ccc(N3CCOC([C@H](C)O)C3)nn2)c(O)c1 (single isomer, unassigned) [Example 98]	298
CC(=O)NCCC1CN(c2ccc(-c3c(C)cc(C(F)(F)F)cc3O)nn2)CCO1 (single isomer, unassigned) [Example 277]	51
CCN1CC[C@H]2CCN(c3ccc(-c4c(O)cccc4C(F)(F)F)nn3)[C@H]2C1 (racemic) [Example 458]	2
CN(C)C[C@H]1CCCN(c2ccc(-c3c(O)cc(Cl)cc3Cl)nn2)C1 [Example 50]	549
CC(=O)N1C[C@@H]2CCN(c3ccc(-c4c(C)cc(C(F)(F)F)cc4O)nn3)[C@@H]2C1 (racemic) [Example 228]	271

P = CCN1CC[C@H]2OCCN(c3ccc(-c4c(C)cc(C)cc4O)nn3)[C@H]2C1 [Example 404]
Q = Cc1cc(C)c(-c2cc(C#N)c(N3CCO[C@H](CO)C3)nn2)c(O)c1 [Example 158]
Between P and Q , which one has the lower reported IC50 value? Please identify the chosen entry by its label.
P
(P: 0.75 nM, Q: 85 nM)

I = Cc1cc(C(F)(F)F)cc(O)c1-c1ccc(N2CCO[C@H]3CCNC[C@H]32)nn1 (single isomer, unassigned) [Example 251]
II = Cc1cc(C)c(-c2ccc(N3CC4(CC[C@@H](O)C4)C3)nn2)c(O)c1 (stereo in doubt) [Example 94]
// which entry has the larger IC50 value, I or II ? Please identify the chosen entry by its label.
II
(II: 1920 nM, I: 21 nM)

A = Cc1ccc(-c2nnc(N3CCO[C@@H]4CCNC[C@@H]43)cc2C(F)F)c(O)c1 [Example 322]
B = Cc1cc(C(F)(F)F)cc(O)c1-c1ccc(N2CCO[C@@H](CF)C2)nn1 (single isomer, unassigned) [Example 283]
C = Cc1cc(C)c(-c2ccc(N3C[C@H](O)CO3)nn2)c(O)c1 [Example 179]
D = CCc1cc(C(F)(F)F)cc(O)c1-c1ccc(N2CCO[C@@H]3CCN(C(C)=O)C[C@@H]32)nn1 [Example 380]
Arrange these molecules by their IC50, starting with the largest number. Lab note: final answer is the ordered label list.
C, B, A, D
